Biological target: δ-opioid receptor (DOR), Human-ORPD1 (human, UniProt P41143 1-372)
Sequence (P41143 whole entry, stated change not applied): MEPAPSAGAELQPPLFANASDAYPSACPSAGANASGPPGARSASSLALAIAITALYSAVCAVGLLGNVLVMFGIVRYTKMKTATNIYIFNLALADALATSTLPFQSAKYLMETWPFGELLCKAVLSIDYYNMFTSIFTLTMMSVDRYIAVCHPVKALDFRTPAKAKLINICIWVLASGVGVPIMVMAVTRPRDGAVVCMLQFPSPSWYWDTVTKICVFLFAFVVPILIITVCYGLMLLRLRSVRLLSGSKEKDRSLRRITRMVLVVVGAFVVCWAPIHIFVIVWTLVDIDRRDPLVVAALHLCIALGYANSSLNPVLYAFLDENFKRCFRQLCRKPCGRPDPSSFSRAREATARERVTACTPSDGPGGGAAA
Test: cell-based or functional assay
Square brackets hold non-standard residues; d marks the D form. Dip = N[C@H](C(=O)O)C(c1ccccc1)c1ccccc1; Dmt = Cc1cc(O)cc(C)c1C[C@H](N)C(=O)O; Sar = CNCC(=O)O
Quick reference for DOR EC50 among some binders
endpoint.label: DOR EC50

* H-[Dmt][dR][Dip][Sar]-NH2 (SMILES Cc1cc(O)cc(C)c1C[C@H](N)C(=O)N[C@H](CCCNC(=N)N)C(=O)N[C@H](C(=O)N(C)CC(N)=O)C(c1ccccc1)c1ccccc1) [H-DMT-r-DPA-Sar-NH2 (Seq. ID 26)] | > 200 nM
* H-[Dmt][dR]F[Sar]-NH2 (SMILES Cc1cc(O)cc(C)c1C[C@H](N)C(=O)N[C@H](CCCNC(=N)N)C(=O)N[C@@H](Cc1ccccc1)C(=O)N(C)CC(N)=O) [H-DMT-r-F-Sar-NH2] | ≤ 10 nM
